Biological target: human NK3 receptor (Homo sapiens)
Sequence (P29371 1-465): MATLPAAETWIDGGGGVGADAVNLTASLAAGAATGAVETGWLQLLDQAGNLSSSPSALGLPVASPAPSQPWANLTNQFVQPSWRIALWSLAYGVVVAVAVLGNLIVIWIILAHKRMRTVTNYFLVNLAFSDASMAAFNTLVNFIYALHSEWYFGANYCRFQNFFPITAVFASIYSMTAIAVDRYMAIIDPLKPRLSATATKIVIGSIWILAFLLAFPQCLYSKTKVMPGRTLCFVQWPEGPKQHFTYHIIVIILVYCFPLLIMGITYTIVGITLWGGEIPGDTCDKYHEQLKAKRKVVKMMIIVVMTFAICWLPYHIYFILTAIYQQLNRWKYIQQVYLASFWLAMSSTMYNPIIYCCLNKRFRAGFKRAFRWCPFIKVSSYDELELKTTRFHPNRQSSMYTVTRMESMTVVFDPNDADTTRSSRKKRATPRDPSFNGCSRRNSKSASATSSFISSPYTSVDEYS
Assay: [3H]SR142801 competition binding assay
Conditions: hNK3 receptor binding, [3H]SR142801, membranes from HEK293 cells transiently expressing recombinant human NK3 receptor
pKi: −log10 of the molar value.
recordedEndpoint: pKi

Sample records with pKi:
{"molecule": "CN(C)[C@@H]1CCN(C(=O)N2C[C@H](c3ccc(Cl)c(Cl)c3)[C@@H](N(C)Cc3ccc(C(F)(F)F)c(F)c3)C2)C1 (mixture of isomers)", "result": 7.13}
{"molecule": "CN(Cc1ccc(C(F)(F)F)c(F)c1)[C@H]1CN(C(=O)CN2CCS(=O)(=O)CC2)C[C@@H]1c1ccc(Cl)c(Cl)c1", "result": 7.36}
{"molecule": "CN(Cc1ccc(C(F)(F)F)c(F)c1)[C@H]1CN(C(=O)CN2CCNCC2)C[C@@H]1c1ccc(Cl)c(Cl)c1 (racemic)", "result": 7.48}
{"molecule": "CN(C)CCN1CCN(C(=O)N2C[C@H](c3ccc(Cl)c(Cl)c3)[C@@H](N(C)Cc3ccc(C(F)(F)F)c(F)c3)C2)CC1 (racemic)", "result": 8.34}
{"molecule": "CN(Cc1ccc(C(F)(F)F)c(F)c1)[C@H]1CN(C(=O)N2CCN(c3cnccn3)CC2)C[C@@H]1c1ccc(Cl)c(Cl)c1 (racemic)", "result": 8.33}
{"molecule": "CC(=O)N1CCN(C(=O)N2C[C@H](c3ccc(Cl)c(Cl)c3)[C@@H](N(C)Cc3ccc(C(F)(F)F)c(F)c3)C2)CC1 (racemic)", "result": 7.76}
{"molecule": "CN(Cc1ccc(C(F)(F)F)c(F)c1)[C@H]1CN(C(=O)CN2CCC(O)CC2)C[C@@H]1c1ccc(Cl)c(Cl)c1 (racemic)", "result": 7.58}
{"molecule": "COc1ccc(N2CCN(C(=O)N3C[C@H](c4ccc(Cl)c(Cl)c4)[C@@H](N(C)Cc4ccc(C(F)(F)F)c(F)c4)C3)CC2)cc1 (racemic)", "result": 8.55}

P = CN(Cc1ccc(C(F)(F)F)c(F)c1)[C@H]1CN(C(=O)CCCCC#N)C[C@@H]1c1ccc(Cl)c(Cl)c1 (racemic)
Q = CN(Cc1ccc(C(F)(F)F)c(F)c1)[C@H]1CN(C(=O)N2CCN(S(C)(=O)=O)CC2)C[C@@H]1c1ccc(Cl)cc1 (racemic)
Between the entries labeled P and Q , whose measured pKi is lower? Reply briefly: the label of your chosen item.
P

A = CCN(CC)C(=O)N1CCN(C(=O)N2C[C@H](c3ccc(Cl)c(Cl)c3)[C@@H](N(C)Cc3ccc(C(F)(F)F)c(F)c3)C2)CC1 (racemic)
B = CN(Cc1ccc(C(F)(F)F)c(F)c1)[C@H]1CN(C(=O)CCCCN2CCCC2)C[C@@H]1c1ccc(Cl)c(Cl)c1 (racemic)
Between the entries labeled A and B , whose measured pKi is lower? Reply briefly: the label of your chosen item.
B
(B: 7.33, A: 8.32)
